# System: SN12C renal
# test summary: NCI tumour cell line growth inhibition, 48 h
readout type: TGI

I have this molecule here, `CC(=O)NNC=N/C(C#N)=C(\N)C#N` , and I need its recorded TGI. > 100 µM

Thanks! And `COC(=O)c1nc(-c2ccc(Cl)c(Cl)c2)nc2ccccc12` ? > 100 µM

Thanks! And O=c1cc(-c2ccc(O)c(O)c2)oc2cc(OC3OC(CO)C(O)C(O)C3O)cc(O)c12 (stereo unspecified) ? > 100 µM

Thanks! And `CSc1nc(C)cc(Nc2ccc(O)c(CN3CCCCC3)c2)n1` ? > 100 µM

Thanks! And `O=c1c2cc(Br)ccc2oc2ccc(Br)cc12` ? > 100 µM

Thanks! And `N#Cc1cnn2c1n[n+]([O-])c1ccc(Cl)cc12` ? 20.7 µM

Thanks! And COc1ccc(C2CC(=O)Nc3c2c(C)nn3-c2nc3ccccc3[nH]2)cc1 (stereo unspecified) ? > 53.7 µM

Thanks! And CN(C)c1ccc(C(C#N)N2CCCN(C(C#N)c3ccc(N(C)C)cc3)C2c2ccc(N(C)C)cc2)cc1 (stereo unspecified) ? > 100 µM

Thanks! And `CCN(CC)CCCCC1CCN(CC(=O)N2c3ccccc3NC(=O)c3ccccc32)CC1` ? > 100 µM

Thanks! And `Cc1nc2ccccc2nc1NS(=O)(=O)c1ccc(N)cc1` ? > 100 µM

Thanks! And `Cc1ccc(NC(=O)c2ccnc(C(F)(F)F)c2)cc1-c1cc(OCCO)nc(N2CCOCC2)c1` ? 28.6 µM

###

So I've got a bunch of molecules here, and I need their log10 of TGI values.
# Tested on: UACC-62 melanoma
# test summary: NCI tumour cell line growth inhibition, 48 h
Hi team, quick reminder: these entries are log10 of TGI (µM).

I have this molecule here, `Cc1sc2ncnc(NCCc3ccccc3)c2c1C` , and I need its recorded log10 of TGI. 1.39

Thanks! And `Cc1cc2c(C(C)C)c(O)c(O)c3coc(/c1=c1/c(C)cc4c(C(C)C)c(=O)c(=O)c5coc1c45)c32` ? 1.13

Thanks! And `C=C1C(=O)O[C@H]2[C@H]1CC/C(COC(=O)NCCc1ccc(OC)cc1)=C\CC[C@@]1(C)O[C@@H]21` ? 0.48

Thanks! And Cc1cccc2c3c(sc12)C(c1ccc(Cl)cc1)C(C#N)=C(/N=C/c1ccc(Cl)cc1)O3 (stereo not given) ? 1.10

Thanks! And `O=C1C(NCCO)=C(N2CC2)C(=O)C(NCCO)=C1N1CC1` ? 2.00

###

# Tested on: OVCAR-3 ovarian
# test summary: NCI tumour cell line growth inhibition, 48 h
readout type: TGI (µM)
Record the value in µM, omitting the unit from your answer.

Give TGI (OVCAR-3 ovarian) of the following compound: `O=c1c2cc(I)ccc2nc(-c2cccs2)n1Nc1ccccc1` 6.52

Thanks! And `C=C1C(=O)O[C@H]2[C@H]1CC/C(COC(=O)NCCc1ccc(OC)cc1)=C\CC[C@@]1(C)O[C@@H]21` ? 5.25

Thanks! And `Oc1ccccc1C=Nc1ccc(Oc2ccc(Cl)cc2)c(Cl)c1` ? 38.5

Thanks! And CCN(CC)c1ccc(/C=C/C2=NN(c3cccc(S(=O)(=O)O)c3)C3(C2)C(Cl)C(=O)N3c2nc3ccccc3s2)cc1 (stereo not given) ? 17.4

Thanks! And `Cc1ccc(NC(=O)c2ccnc(C(F)(F)F)c2)cc1-c1cc(OCCO)nc(N2CCOCC2)c1` ? 12.5

Thanks! And `O=C1/C(=C/c2cccc([N+](=O)[O-])c2)CCCc2ccccc21` ? 26.5

Thanks! And `COc1ccc(Cl)cc1N1C(=O)C(Cl)=C(Nc2cccc(O)c2)C1=O` ? 36.5

Thanks! And COC(=O)Nc1ccc2ccc3c(NC(=O)OC)ccc4ccc1c2c43 (tested in a mixture with another compound) ? 45.2

###

# System: U251 CNS
# test summary: NCI tumour cell line growth inhibition, 48 h
readout type: TGI

I have this compound here, `COc1ccccc1NC(=O)C(C#N)=C(SC)SC` , and I need its recorded TGI. > 100 µM

Thanks! And O=C(Nc1ccc(C(F)(F)F)cc1[N+](=O)[O-])C(=O)C(C(=O)c1ccc2ccccc2c1)C1OC(=O)c2ccccc21 (stereo unspecified) ? 17.5 µM

Thanks! And `CCCCOC(=O)/C(CC(=O)C=C(C)C)=N\NS(=O)(=O)c1ccc(C)cc1` ? > 100 µM

Thanks! And `COc1cc2c(/C=C3/C(=O)Nc4ccccc43)c(Cl)n(Cc3ccccc3)c2cc1C` ? > 100 µM

Thanks! And `COc1ccc2[nH]c3c(cnn4cnnc34)c2c1` ? > 100 µM

Thanks! And Cc1cccc(C(C)O)n1 (stereo unspecified) ? > 100 µM

###

# System: ACHN renal
# test summary: NCI tumour cell line growth inhibition, 48 h; in the data active means GI50 below about 0.43 µM; inactive means the rest
Just give me one of these, please: class 1 for active, class 0 for inactive

Recorded test call requested for `CC(C)(C)Cn1c(N)nc2ccc(-c3[nH]c(C(C)(C)C)nc3-c3ccc(F)cc3)nc21` class 0

Thanks! And `COc1n[n+]([O-])c(C)cc1[N+](=O)[O-]` ? class 0

Thanks! And `COc1ccc(-c2ccc(/C=N/n3cn[nH]c3=S)o2)c([N+](=O)[O-])c1` ? class 0

Thanks! And `N#C/C(=C\c1cn(-c2ccccc2)c2ccccc12)C(=O)O` ? class 0

Thanks! And `CCOC(=O)c1sc(=S)c2c(C(=O)c3ccccc3)c(C(=O)c3ccccc3)sc2c1C(=O)OCC` ? class 0

Thanks! And `C#Cc1cccc(NC(=O)Nc2ccc(NC(=O)CCl)cc2)c1` ? class 0

Thanks! And `Cc1ccc(NC(=O)c2ccnc(C(F)(F)F)c2)cc1-c1cc(OCCO)nc(N2CCOCC2)c1` ? class 0

Thanks! And `CCOC(=O)c1cc2c(cc1Cl)SC(N(c1ccc(F)cc1)S(=O)(=O)c1ccc(OC)cc1)=NS2(=O)=O` ? class 0

Thanks! And `COC(=O)c1c2c(c(C)[n+]([O-])c1C)C(=O)C=C(NCc1ccc(Cl)cc1)C2=O` ? class 1

###

So I've got a bunch of compounds here, and I need their TGI values.
# System: SNB-75 CNS
# test summary: NCI tumour cell line growth inhibition, 48 h

Give TGI (SNB-75 CNS) of the following compound: `O=C(CC(=O)Nc1ccc(Cl)cc1)NNCC(=O)Nc1nc(-c2ccccc2)cs1` > 100 µM

Thanks! And CCCOC(=O)c1cc(C(=CCC[C@H]2CC[C@@]3(C)[C@@H](CC[C@@H]4[C@@H]3CC[C@]3(C)[C@@H](C(C)CCCC(C)C)CC[C@@H]43)C2)c2cc(Cl)c(O)c(C(=O)OCCC)c2)cc(Cl)c1O (stereo partly specified) ? > 50 µM

Thanks! And O=c1cc(-c2ccc(O)c(O)c2)oc2cc(OC3OC(CO)C(O)C(O)C3O)cc(O)c12 (stereo unspecified) ? > 100 µM

Thanks! And COc1cc(/C=C2\CCCC3=C2NC(N)=NC3c2cc(OC)c(OC)c(OC)c2)cc(OC)c1OC (stereo unspecified) ? > 100 µM

Thanks! And CCCCCCN1C(=O)/C(=c2\sc3n(c2=O)C2C(NN=3)N(CC)C(=O)N2CC)c2ccccc21 (stereo unspecified) ? 2.31 µM

Thanks! And `CCCOc1ccc(/C=C\c2cc(OC)c(OC)c(OC)c2)cc1` ? > 100 µM

###

# System: A549 NSCLC
# test summary: NCI tumour cell line growth inhibition, 48 h
readout type: TGI

Give TGI (A549 NSCLC) of the following molecule: `Cc1c(CCN=P(c2ccccc2)(c2ccccc2)c2ccccc2)c(=O)n2c([nH]c3ccccc32)c1C#N` > 10 µM

Thanks! And COC(=O)/C=C/c1cc(OC)c2c(c1)C(C(=O)OC)C(c1ccc(OC)c(OC)c1)O2 (stereo not given) ? > 100 µM

Thanks! And `Cc1sc2ncnc(NCCc3ccccc3)c2c1C` ? 83 µM

Thanks! And `O=C(O)Cc1cc(=O)oc2cc(O)c(Cl)cc12` ? > 100 µM

Thanks! And OCCNc1nc(NCCO)nc(Nc2ccc(C3=NN(c4cc(Cl)cc(Cl)c4)C(c4ccc(Cl)cc4)C3)cc2)n1 (stereo not given) ? 4.45 µM

Thanks! And `CN(C)c1cccc2[nH]c(-c3[nH]ncc3Nc3ccnc(N)n3)nc12` ? 1.15 µM

Thanks! And `Cc1ccc2c(ccc3c[n+]4ccccc4c(C)c32)c1` ? 40.9 µM

Thanks! And `N#C/C(=C\c1ccc(Cl)cc1)c1nc2ccccc2c(=O)[nH]1` ? > 100 µM

Thanks! And CC1C2CC(C(C3C(=O)C4CC3C(C)(C)C4C)C2=O)C1(C)C (stereo not given) ? > 100 µM

Thanks! And Nc1ncc2c(n1)-c1ccccc1OC2NC1CC1 (stereo not given) ? > 100 µM

Entry source: PubChem BioAssay (NCI)
